From: ChEMBL document CHEMBL1130633

What Binding was measured for each of the following?
# tested_system: D(2) dopamine receptor (Bos taurus) (UniProt P20288)
# Sequence (P20288 whole entry): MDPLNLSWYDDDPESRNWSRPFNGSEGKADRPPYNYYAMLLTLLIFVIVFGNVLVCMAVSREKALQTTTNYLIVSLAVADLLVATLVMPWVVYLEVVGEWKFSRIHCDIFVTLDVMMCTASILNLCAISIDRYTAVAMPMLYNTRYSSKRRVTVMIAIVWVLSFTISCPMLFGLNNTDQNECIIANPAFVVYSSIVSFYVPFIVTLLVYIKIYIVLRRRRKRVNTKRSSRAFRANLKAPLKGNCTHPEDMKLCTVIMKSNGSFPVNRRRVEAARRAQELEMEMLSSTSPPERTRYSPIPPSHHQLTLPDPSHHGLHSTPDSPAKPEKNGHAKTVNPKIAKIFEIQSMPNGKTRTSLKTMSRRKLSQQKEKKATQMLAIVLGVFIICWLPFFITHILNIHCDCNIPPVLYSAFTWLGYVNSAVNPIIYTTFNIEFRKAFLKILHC
# procedure_summary: Compound was evaluated for its ability to enhance the binding of the dopamine receptor agonist [3H]pramipexole to Dopamine receptor D2 at a concentration of 10E-9 M
Where a SMILES comes first, the peptide text is derived from it.
Numbers only, in %.

Example entries begin here.
CC(C)C[C@H](NC(=O)[C@@H]1CNC[C@@H]1Cc1ccccc1)C(=O)NCC(N)=O :: 104
CC(C)C[C@H](NC(=O)[C@H]1CNC[C@@H]1Cc1ccccc1)C(=O)NCC(N)=O :: 109
CC(C)C[C@H](NC(=O)[C@H]1CNC[C@H]1Cc1ccccc1)C(=O)NCC(N)=O :: 99.6

Would you mind giving Binding for every compound in the list below?
1. CC(C)C[C@H](NC(=O)[C@@H]1CCNC1)C(=O)NCC(N)=O
2. CC(C)C[C@H](NC(=O)[C@@H]1CNC[C@H]1Cc1ccccc1)C(=O)NCC(N)=O
3. CC(C)C[C@H](NC(=O)[C@H]1CCNC1)C(=O)NCC(N)=O

Ans:
[104, 108, 107]

Q: Would you kindly share the measured Binding for CC(C)C[C@H](NC(=O)[C@@H]1CCCN1)C(=O)NCC(N)=O (H-Pro-Leu-Gly-NH2) ?
Ans: 109
